Entries and their IC50 values follow.
Biological target: human NaP2b (SLC34A2) (Homo sapiens, UniProt O95436)
Construct: host or cells: HEK293
Sequence (O95436 1-690): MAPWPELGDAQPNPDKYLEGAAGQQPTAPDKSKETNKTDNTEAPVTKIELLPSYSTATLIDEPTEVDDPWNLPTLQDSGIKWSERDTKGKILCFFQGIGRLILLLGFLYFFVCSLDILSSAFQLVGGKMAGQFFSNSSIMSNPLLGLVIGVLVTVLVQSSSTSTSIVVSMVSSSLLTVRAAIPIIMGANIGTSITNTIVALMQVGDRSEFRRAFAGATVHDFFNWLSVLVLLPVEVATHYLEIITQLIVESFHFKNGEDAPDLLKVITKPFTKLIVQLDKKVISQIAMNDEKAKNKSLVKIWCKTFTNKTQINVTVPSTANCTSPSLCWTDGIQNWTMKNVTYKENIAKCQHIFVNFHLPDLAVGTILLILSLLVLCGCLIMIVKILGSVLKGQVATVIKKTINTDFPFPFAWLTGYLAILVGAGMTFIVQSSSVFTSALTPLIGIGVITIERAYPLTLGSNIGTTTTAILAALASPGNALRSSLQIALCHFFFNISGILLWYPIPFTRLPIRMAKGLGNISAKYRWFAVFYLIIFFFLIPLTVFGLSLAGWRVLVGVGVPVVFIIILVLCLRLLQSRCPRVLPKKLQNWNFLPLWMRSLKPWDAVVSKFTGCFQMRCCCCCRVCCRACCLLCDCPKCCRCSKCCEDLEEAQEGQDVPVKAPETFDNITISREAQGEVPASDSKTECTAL
Experiment: Inhibition of NaP2b-mediated Pi (33P) uptake in transfected HEK293 cells, human NaP2b
Assay type: cell-based
Conditions: read-out: pIC50 range for human NaP2b (converted)
Where a name gives a salt, the structure may show the parent alone.
measurement name: IC50

COCCNC(=O)[C@H]1CCCN(C(=O)c2cccc(C(=O)Nc3ccc(N4CCCCC4)cc3-c3cc(C(=O)N[C@H]4CCCc5ccccc54)ccn3)c2)C1 : < 1000 nM
O=C(CCOCCOCCOCCOCCCc1cccc(C(=O)Nc2ccc(N3CCCCC3)cc2-c2cc(C(=O)NCc3cccc(C(F)(F)F)c3)ccn2)c1)NC(CO)(CO)CO : 1000 to 7940 nM
CCN(CC)c1ccc(NC(=O)c2cccc(CCCOCCOCCOCCOCCC(=O)N3CCN(S(=O)(=O)C(C)C)CC3)c2)c(-c2cc(C(=O)NCc3cccc(C(F)(F)F)c3)ccn2)c1 : < 1000 nM
O=C(NCc1cccc(C(F)(F)F)c1)c1ccnc(-c2cc(N3CCCCC3)ccc2NC(=O)c2cccc(CCCOCCOCCOCCOCCC(=O)N(CCO)CCO)c2)c1 : 1000 to 7940 nM
O=C(O)c1cccc(SCc2cccc(C(=O)Nc3ccc(N4CCCCC4)cc3-c3cc(C(=O)NCc4cccc(C(F)(F)F)c4)ccn3)c2)c1 : < 1000 nM
CN(CCCN1CCOCC1)C(=O)c1cccc(C(=O)Nc2ccc(N3CCCCC3)cc2-c2cc(C(=O)N[C@H]3CCCc4ccccc43)ccn2)c1 : 1000 to 7940 nM
CCN(CC)c1ccc(NC(=O)c2cccc(CCCOCCOCCOCCOCCC(=O)N3CCC[C@H](C(=O)N(C)CCOCCOCCOCCOCCOCCOCCOC)C3)c2)c(-c2cc(C(=O)NCc3cccc(C(F)(F)F)c3)ccn2)c1 : < 1000 nM
CN1CCN(CCN(C)C(=O)c2cccc(C(=O)Nc3ccc(N4CCCCC4)cc3-c3cc(C(=O)N[C@H]4CCCc5ccccc54)ccn3)c2)CC1=O : < 1000 nM
COCCOCCOCCOCCOCCOCCOCCOCC(=O)N1CCCN(CCN(C)C(=O)c2cccc(C(=O)Nc3ccc(N4CCCCC4)cc3-c3cc(C(=O)N[C@H]4CCCc5ccccc54)ccn3)c2)CC1 : 1000 to 7940 nM
CCN(CC)c1ccc(NC(=O)c2cccc(C#CCOCCOCCOCCOCCOCCOCCOCCOCCOC)c2)c(-c2cc(C(=O)NCc3cccc(C(F)(F)F)c3)ccn2)c1 : < 1000 nM
CCN(CC)c1ccc(NC(=O)c2cccc(C(=O)N(C)CCN(CCOC)CCOCCOCCOCCOCCOCCOCCOC)c2)c(-c2cc(C(=O)NCc3cccc(C(F)(F)F)c3)ccn2)c1 [Example 335, trifluoroacetate] : 1000 to 7940 nM
